target: wildtype feline IL-31 (Feline_IL31_wildtype) (feline); assay: SPR (Biacore), immobilised IL-31, 1:1 fit
Sequence (chain, as listed by the source limits assumed, form in doubt): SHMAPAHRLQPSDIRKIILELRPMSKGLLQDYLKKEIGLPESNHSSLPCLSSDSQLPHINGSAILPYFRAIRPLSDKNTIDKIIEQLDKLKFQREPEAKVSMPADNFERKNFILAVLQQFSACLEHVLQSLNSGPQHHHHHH
assay.endpoint: koff (s⁻¹)
The reply should be a number in s⁻¹, with the unit left off.

Study these solved cases before continuing.
[in] Query (binder): Feline 15H05 1.1 V43I (antibody, V domains shown) VH: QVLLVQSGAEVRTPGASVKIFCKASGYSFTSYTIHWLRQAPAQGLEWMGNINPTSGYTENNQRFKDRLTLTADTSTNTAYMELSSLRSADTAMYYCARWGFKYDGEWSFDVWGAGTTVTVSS VL: EIQMTQSPSSLSASPGDRVTITCRASQGISIWLSWYQQKPGKIPKLLIYKASNLHIGVPSRFSGSGSGTDFTLTISSLEPEDAATYYCLQSQTYPLTFGGGTKLEIK ; field requested: koff
[out] 0.000401

[in] Returns the measured koff for the input binder. Input: Feline 15H05 1.1 K42N (antibody, V domains shown) VH: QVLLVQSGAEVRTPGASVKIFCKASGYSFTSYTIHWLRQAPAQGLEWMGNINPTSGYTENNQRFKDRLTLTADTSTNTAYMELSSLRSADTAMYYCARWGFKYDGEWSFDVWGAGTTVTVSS VL: EIQMTQSPSSLSASPGDRVTITCRASQGISIWLSWYQQKPGNVPKLLIYKASNLHIGVPSRFSGSGSGTDFTLTISSLEPEDAATYYCLQSQTYPLTFGGGTKLEIK
[out] 0.011

[in] Any idea what koff was measured for Feline 15H05 1.3 (antibody, V domains shown) VH: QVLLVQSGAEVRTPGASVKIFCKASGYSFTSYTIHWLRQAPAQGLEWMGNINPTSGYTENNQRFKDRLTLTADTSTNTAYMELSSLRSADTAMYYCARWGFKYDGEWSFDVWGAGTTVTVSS VL: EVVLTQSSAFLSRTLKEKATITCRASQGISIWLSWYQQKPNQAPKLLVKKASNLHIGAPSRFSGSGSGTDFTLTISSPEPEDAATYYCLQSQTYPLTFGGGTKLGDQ ?
[out] 0.00328

Here is another binder to look at.
[in] I have this binder here, Feline 15H05_VH1 mouse VL (antibody, V domains shown) VH: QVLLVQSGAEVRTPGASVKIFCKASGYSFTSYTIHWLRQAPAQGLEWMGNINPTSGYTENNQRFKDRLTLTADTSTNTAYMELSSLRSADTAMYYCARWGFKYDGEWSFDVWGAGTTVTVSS VL: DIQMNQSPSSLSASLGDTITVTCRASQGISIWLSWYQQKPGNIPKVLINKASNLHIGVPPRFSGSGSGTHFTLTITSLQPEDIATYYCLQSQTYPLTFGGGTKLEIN , and I need its recorded koff.
[out] 2.2e-05
